Just for reference, patent US20190359687A1 is where these values come from.

- Tested On: T1, dog red blood cells (dog)
- T1 construct: also called dog RBC
- Protocol Notes: FACS, dog RBC
Quantity: FACS signal

>  <Binder>
12C6A6/A5 (antibody, V domains shown, as m8) VH: QVQLQQSGAELARPGASVKMSCKASGYTFTRYSMHWVKQRPGQGLEWIGYINPGTYSTNYNQKFKDRATLTADKSSSTAYMQLNSLTSEDSAVYYCQTGTRDYWGQGTTLTVSS VL: QIVLTQSPPIMSASPGEKVTITCSAASSVSYIYWFQQKPGTSPKLWIYSTSSLPSGVPTRFSGSGSGTSYSLTISRMEAEDAATYYCHQRSSYPFTFGSGTKLEIR

>  <Reported>
0.96 relative flourescence units

$$$$
